target.desc: Kit D816V (HMC1.2 cells, Kit V560G and D816V) (Homo sapiens, UniProt P10721, D816V/V560G)
Construct: endogenous in cells
Sequence (P10721 26-976 V560G/D816V): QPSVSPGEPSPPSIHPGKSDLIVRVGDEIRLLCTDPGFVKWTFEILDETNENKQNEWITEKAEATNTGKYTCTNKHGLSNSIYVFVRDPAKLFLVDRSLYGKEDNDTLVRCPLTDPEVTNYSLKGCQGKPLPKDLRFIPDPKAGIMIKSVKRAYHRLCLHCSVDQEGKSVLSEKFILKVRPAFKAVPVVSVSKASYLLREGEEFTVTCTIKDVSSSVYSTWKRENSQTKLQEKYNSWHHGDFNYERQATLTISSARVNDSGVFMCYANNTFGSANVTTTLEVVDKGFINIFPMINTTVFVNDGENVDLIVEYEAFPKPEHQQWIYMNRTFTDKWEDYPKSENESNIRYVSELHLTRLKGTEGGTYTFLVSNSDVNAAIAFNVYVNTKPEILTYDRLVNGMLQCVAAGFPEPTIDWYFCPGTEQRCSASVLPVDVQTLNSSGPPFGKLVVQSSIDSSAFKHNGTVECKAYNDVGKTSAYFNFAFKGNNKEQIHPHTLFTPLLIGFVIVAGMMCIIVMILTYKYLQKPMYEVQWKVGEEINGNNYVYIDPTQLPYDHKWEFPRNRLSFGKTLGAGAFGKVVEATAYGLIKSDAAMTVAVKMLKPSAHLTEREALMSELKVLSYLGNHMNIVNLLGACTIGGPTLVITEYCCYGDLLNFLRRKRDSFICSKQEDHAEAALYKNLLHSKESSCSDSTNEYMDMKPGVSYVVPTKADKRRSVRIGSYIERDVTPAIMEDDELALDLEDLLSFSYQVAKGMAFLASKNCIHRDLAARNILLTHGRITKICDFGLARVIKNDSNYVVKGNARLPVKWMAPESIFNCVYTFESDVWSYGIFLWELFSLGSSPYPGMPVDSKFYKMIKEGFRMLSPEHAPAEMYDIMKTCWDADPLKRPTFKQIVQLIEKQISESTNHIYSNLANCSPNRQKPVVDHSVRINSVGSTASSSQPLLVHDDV
method: HMC1.2 autophosphorylation assay (AlphaLISA, phospho-Y719 c-Kit)
assay.setup: Kit autophosphorylation at tyrosine 719, 90 minutes, read-out: Cellular Activity
For each entry below, report its IC50 value.

1) CC(C)(O)CN1CCc2ccc(Nc3ncnc(N4CCN(c5ncc(Cc6ccccc6)cn5)CC4)n3)cc2C1: 10 to 100 nM

# return IC50 for each item in the list
1. CC(C)(O)[C@@H](O)c1ccc(Nc2ncnc(N3CCN(c4ncc(Cc5ccccc5)cn4)CC3)n2)cc1
2. Oc1nc(N2CCN(c3ncnc(Nc4ccc5c(c4)CNCC5)n3)CC2)ncc1Cc1ccccc1
3. Brc1cnc(N2CCN(c3ncnc(Nc4cnn(C[C@@H]5CNCCO5)c4)n3)CC2)nc1
4. Cc1c(Nc2ncnc(N3CCN(c4ncc(Sc5ccccc5F)cn4)[C@H](C)C3)n2)cnn1C[C@H](O)CO
5. CN1CCc2ccc(Nc3ncnc(N4CCN(c5ncc(Cc6ccccc6)cn5)CC4)n3)cc2C1

1. 10 to 100 nM
2. 10 to 100 nM
3. 1000 to 10000 nM
4. 100 to 1000 nM
5. < 10 nM

# return IC50 for each item in the list
1. COc1nc(N2CCN(c3ncnc(Nc4cnn(C[C@@H]5CNCCO5)c4)n3)CC2)ncc1Cc1ccccc1
2. CN1CCC(Cn2cc(Nc3ncnc(N4CCN(c5ncc(Cc6ccccc6)cn5)CC4)n3)cn2)CC1

["1000 to 10000 nM", "< 10 nM"]

# return IC50 for each item in the list
1. c1ccc(Cc2cnc(N3CCN(c4ncnc(Nc5ccc6cn[nH]c6c5)n4)CC3)nc2)cc1
2. C[C@](O)(c1ccccc1)c1cnc(N2CCN(c3ncnc(Nc4ccc(N5CCOCC5)cc4)n3)CC2)nc1
3. c1ccc(Cc2cnc(N3CCN(c4ncnc(Nc5cnn(C[C@H]6COCCN6)c5)n4)CC3)nc2)cc1
4. OCC(O)Cn1cc(Nc2ncnc(N3CCN(c4ncc(Cc5ccccc5)cn4)CC3)n2)cn1 (centres unmarked)
5. COCCN1CCc2ccc(Nc3ncnc(N4CCN(c5ncc(Cc6ccccc6)cn5)CC4)n3)cc2C1

["100 to 1000 nM", "< 10 nM", "10 to 100 nM", "10 to 100 nM", "10 to 100 nM"]

# return IC50 for each item in the list
1. CP(C)(=O)c1ccc(Nc2ncnc(N3CCN(c4ncc(Nc5ccc(F)cc5)cn4)CC3)n2)cc1
2. CC(O)(c1ccccc1)c1cnc(N2CCN(c3ncnc(Nc4cnn(C[C@@H]5CNCCO5)c4)n3)CC2)nc1 (some centres unmarked)
3. Fc1ccc(Sc2cnc(N3CCN(c4ncnc(Nc5cnn(C[C@@H]6CNCCO6)c5)n4)CC3)nc2)cc1
4. OC[C@@H]1CN(c2ncnc(Nc3cnn(CC4CNCCO4)c3)n2)CCN1c1ncc(Cc2ccccc2)cn1 (some centres unmarked)
5. CN1CCC[C@@H]1COc1ccc(Nc2ncnc(N3CCN(c4ncc(Cc5ccccc5)cn4)CC3)n2)cc1
6. Fc1cccc(Oc2cnc(N3CCN(c4ncnc(Nc5cnn(C[C@@H]6CNCCO6)c5)n4)CC3)nc2)c1

1: 100 to 1000 nM; 2: 10 to 100 nM; 3: 10 to 100 nM; 4: 10 to 100 nM; 5: 10 to 100 nM; 6: 100 to 1000 nM

# return IC50 for each item in the list
1. Cc1c(Nc2ncnc(N3CCN(c4ncc(Cc5ccccc5)c(N)n4)CC3)n2)cnn1C[C@@H]1CNCCO1
2. c1ccc(Sc2cnc(N3CCN(c4ncnc(Nc5cnn(C[C@@H]6CNCCO6)c5)n4)CC3)nc2)cc1

["10 to 100 nM", "10 to 100 nM"]

# return IC50 for each item in the list
1. CN1CCC(CCNc2ncnc(N3CCN(c4ncc(Cc5ccccc5)cn4)CC3)n2)CC1
2. COc1cc(N2CCNCC2)ccc1Nc1ncnc(N2CCN(c3ncc(Cc4ccccc4)cn3)CC2)n1

1: > 10000 nM; 2: 1000 to 10000 nM

====

For each entry below, report its pIC50 value.
target.desc: PDGFRA D842V (Homo sapiens, UniProt P16234, D842V)
Sequence (P16234 24-1089 D842V): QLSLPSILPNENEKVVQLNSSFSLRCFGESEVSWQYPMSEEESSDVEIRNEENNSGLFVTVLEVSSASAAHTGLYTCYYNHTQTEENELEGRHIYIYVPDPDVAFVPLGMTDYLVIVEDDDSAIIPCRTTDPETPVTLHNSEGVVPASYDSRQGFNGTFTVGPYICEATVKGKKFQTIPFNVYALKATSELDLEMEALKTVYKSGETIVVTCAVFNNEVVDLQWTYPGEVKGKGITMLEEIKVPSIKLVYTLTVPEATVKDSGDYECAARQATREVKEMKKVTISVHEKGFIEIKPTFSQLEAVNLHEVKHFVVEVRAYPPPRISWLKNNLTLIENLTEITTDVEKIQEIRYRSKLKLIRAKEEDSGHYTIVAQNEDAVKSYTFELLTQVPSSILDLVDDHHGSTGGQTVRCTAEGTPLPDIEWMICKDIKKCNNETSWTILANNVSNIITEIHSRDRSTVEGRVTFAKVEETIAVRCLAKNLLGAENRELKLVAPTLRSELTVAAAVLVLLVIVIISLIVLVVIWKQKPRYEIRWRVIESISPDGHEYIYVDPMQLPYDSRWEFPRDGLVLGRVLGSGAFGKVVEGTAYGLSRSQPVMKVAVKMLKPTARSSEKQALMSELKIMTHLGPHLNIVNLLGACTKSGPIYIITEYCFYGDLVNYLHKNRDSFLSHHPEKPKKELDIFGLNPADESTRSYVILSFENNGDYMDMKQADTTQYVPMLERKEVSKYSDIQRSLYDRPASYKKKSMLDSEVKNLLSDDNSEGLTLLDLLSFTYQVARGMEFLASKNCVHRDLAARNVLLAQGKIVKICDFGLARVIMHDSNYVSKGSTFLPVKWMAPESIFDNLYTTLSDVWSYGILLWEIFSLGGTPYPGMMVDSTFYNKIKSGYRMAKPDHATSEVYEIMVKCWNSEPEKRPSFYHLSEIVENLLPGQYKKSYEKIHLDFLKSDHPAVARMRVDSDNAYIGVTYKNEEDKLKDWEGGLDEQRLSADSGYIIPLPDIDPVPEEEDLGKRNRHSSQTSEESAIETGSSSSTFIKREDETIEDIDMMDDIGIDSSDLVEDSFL
method: PDGFRA D842V assay at Km (Caliper electrophoretic mobility shift)
assay.setup: 15 uM ATP, 25 C, 90 minutes; read-out: PDFGRA D842V
Description: In order to assess the activity of chemical compounds against the relevant kinase of interest, the Caliper LifeSciences electrophoretic mobility shift technology platform is used. […] At the end of the reaction, the mix of phosphorylated (product) and non-phosphorylated (substrate) peptides are passed through the microfluidic system of the Caliper EZ Reader 2, under an applied potential difference. […] As the pools pass a LEDS within the instrument, these pools are detected and resolved as separate peaks. […]
pIC50: −log10 of the molar value.

# return pIC50 for each item in the list
1. CNCCn1cc(Nc2ncnc(N3CCN(c4ncc(Cc5ccccc5)cn4)CC3)n2)cn1 [Compound 30]
2. Nc1cccc(Nc2ncnc(N3CCN(c4ncc(Cc5ccccc5)cn4)CC3)n2)c1 [Compound 12]
3. O[C@H]1CCCN(c2ccc(Nc3ncnc(N4CCN(c5ncc(Cc6ccccc6)cn5)CC4)n3)cc2)C1 [Compound 166]
4. c1ccc(Oc2cnc(N3CCN(c4ncnc(Nc5ccc6c(c5)CNCC6)n4)CC3)nc2)cc1 [Compound 46]
5. CN(C)[C@@H]1CCN(Cc2cccc(Nc3ncnc(N4CCN(c5ncc(Cc6ccccc6)cn5)CC4)n3)c2)C1 [Compound 261]

> 9.00
> 9.00
8.00 to 9.00
8.00 to 9.00
> 9.00

====

target.desc: Kit D816V (HMC1.2 cells, Kit V560G and D816V) (Homo sapiens, UniProt P10721, D816V/V560G)
Construct: endogenous in cells
method: HMC1.2 autophosphorylation assay (AlphaLISA, phospho-Y719 c-Kit)
assay.setup: Kit autophosphorylation at tyrosine 719, 90 minutes, read-out: Cellular Activity
Experimental: HMC1.2 Autophosphorylation Assay: 10,000 HMC1.2 cells were incubated in 22 ul culture media (phenol-red free IMDM, no serum) in each well of a 384-well plate and serum starved overnight in a tissue culture incubator (5% CO2, 37° C.). A 10-point dose concentration series of compound (25 uM-95.4 pM) were then added to the cells in a volume of 3.1 ul to each well (0.25% DMSO final concentration). […] Fluorescence signal was obtained on Envision (Perkin Elmer) by AlphaScreen 384 well HTS protocol. […]
pIC50: −log10 of the molar value.
reported.endpoint: pIC50

Worked examples follow.
1) OC[C@H](O)COc1ccc(Nc2ncnc(N3CCN(c4ncc(Cc5ccccc5)cn4)CC3)n2)cc1 [Compound 131]: 7.00 to 8.00
2) c1ccc(Cc2cnc(N3CCN(c4ncnc(Nc5cnn(C[C@@H]6COCCN6)c5)n4)CC3)nc2)cc1 [Compound 126]: 6.00 to 7.00
3) Cc1nn(C[C@H](C)O)cc1Nc1ncnc(N2CCN(c3ncc(Sc4ccc(F)cc4)cn3)CC2)n1 [Compound 152]: > 8.00
4) OCc1ccccc1Cc1cnc(N2CCN(c3ncnc(Nc4ccc5c(c4)CNCC5)n3)CC2)nc1 [Compound 109]: > 8.00
5) CS(=O)(=O)c1ccc(Nc2ncnc(N3CCN(c4ncc(Cc5ccccc5)cn4)CC3)n2)cc1 [Compound 94]: 7.00 to 8.00
6) OC[C@@H](O)COc1ccc(Nc2ncnc(N3CCN(c4ncc(Cc5ccccc5)cn4)CC3)n2)cc1 [Compound 129]: 7.00 to 8.00
7) Nc1nc(N2CCN(c3ncnc(Nc4ccc5c(c4)CNCC5)n3)CC2)ncc1Cc1ccccc1 [Compound 73]: > 8.00
8) C[C@H](c1ccccc1)c1cnc(N2CCN(c3ncnc(Nc4cnn(C[C@@H]5CNCCO5)c4)n3)CC2)nc1 [Compound 186]: 7.00 to 8.00
9) CN1CCN(c2cccc(Nc3ncnc(N4CCN(c5ncc(Cc6ccccc6)cn5)CC4)n3)c2)CC1 [Compound 157]: 6.00 to 7.00
10) c1ccc(Cc2cnc(N3CCN(c4ncnc(Nc5cccc(CN6CCOCC6)c5)n4)CC3)nc2)cc1 [Compound 160]: 6.00 to 7.00

# return pIC50 for each item in the list
1. Cc1c(Nc2ncnc(N3CCN(c4ncc([C@@](C)(O)c5ccc(F)cc5)cn4)CC3)n2)cnn1C[C@@H]1CNCCO1 [Compound 276]
2. CCN1CCO[C@H](Cn2cc(Nc3ncnc(N4CCN(c5ncc(Cc6ccccc6)cn5)CC4)n3)cn2)C1 [Compound 241]
3. CN(C)Cc1cccc(Nc2ncnc(N3CCN(c4ncc(Cc5ccccc5)cn4)CC3)n2)c1 [Compound 49]
4. Cc1c(Nc2ncnc(N3CCN(c4ncc([C@](C)(O)c5ccc(F)cc5)cn4)CC3)n2)cnn1C[C@@H]1CNCCO1 [Compound 277]
5. CN(C)CCCn1cc(Nc2ncnc(N3CCN(c4ncc(Cc5ccccc5)cn4)CC3)n2)cn1 [Compound 88]
6. OC[C@H](O)Cn1cc(Nc2ncnc(N3CCN(c4ncc(Cc5ccccc5)cn4)CC3)n2)cn1 [Compound 66]

1: 7.00 to 8.00; 2: 7.00 to 8.00; 3: 7.00 to 8.00; 4: 7.00 to 8.00; 5: 7.00 to 8.00; 6: 7.00 to 8.00

# return pIC50 for each item in the list
1. CN1CCC[C@H]1COc1ccc(Nc2ncnc(N3CCN(c4ncc(Cc5ccccc5)cn4)CC3)n2)cc1 [Compound 219]
2. CN1CCNC[C@@H]1Cn1cc(Nc2ncnc(N3CCN(c4ncc(Cc5ccccc5)cn4)CC3)n2)cn1 [Compound 177]
3. OC1(Cn2cc(Nc3ncnc(N4CCN(c5ncc(Cc6ccccc6)cn5)CC4)n3)cn2)CCNCC1 [Compound 182]
4. COc1cc(Nc2ncnc(N3CCN(c4ncc(Cc5ccccc5)cn4)CC3)n2)ccn1 [Compound 17]
5. Fc1ccccc1Sc1cnc(N2CCN(c3ncnc(Nc4ccc(C5CNCCO5)cc4)n3)CC2)nc1 (stereo not shown) [Compound 251]
6. C[C@](O)(c1ccc(F)cc1)c1cnc(N2CCN(c3ncnc(Nc4cnn(C[C@@H]5CNCCO5)c4)n3)CC2)nc1 [Compound 269]

1. 7.00 to 8.00
2. 7.00 to 8.00
3. 7.00 to 8.00
4. 5.00 to 6.00
5. 6.00 to 7.00
6. 7.00 to 8.00
